TC50 Vero Cells listing for selected compounds.
tested on: Vero Cells; assay: Cytotoxicity, Vero cells; assay type: cell-based; conditions: Table 2

| compound | target-entity | endpoint-name | observed-value |
| --- | --- | --- | --- |
| COc1cccc(N(CCCCCC2CCCCC2)c2cc3ccccc3[n+](C)c2)c1.[I-] [JRE-3-69-1] | Vero Cells | TC50 Vero Cells | >10 µg/mL |
| COc1ccc(N(CCCCCC2CCCCC2)c2cc3ccccc3[n+](C)c2)cc1.[I-] [JRE-3-68-1] | Vero Cells | TC50 Vero Cells | >10 µg/mL |
| C[n+]1cc(N(CCCCCC2CCCCC2)c2ccsc2)cc2ccccc21 [EVK-II-091] | Vero Cells | TC50 Vero Cells | >10 µg/mL |

## Task Consider the compound C[n+]1cccc(N(CCCCCC2CCCCC2)c2ccc3ccccc3c2)c1 [EVK-III-002] and give its measured TC50 Vero Cells.
## Result 6.0 µg/mL

## Task Consider the compound C[n+]1cc(N(CCCCCC2CCCCC2)c2ccc(OC(F)(F)F)cc2)cc2ccccc21.[I-] [JRE-3-99-1] and give its measured TC50 Vero Cells.
## Result >10 µg/mL

## Task Consider the compound C[n+]1cc(N(CCCCCC2CCCCC2)c2cccc(C(F)(F)F)c2)cc2ccccc21.[I-] [JRE-3-61-1] and give its measured TC50 Vero Cells.
## Result >10 µg/mL

## Task Consider the compound C[n+]1cc(N(CCCCCC2CCCCC2)c2ccc3ccccc3c2)cc2ccccc21 [EVK-III-001] and give its measured TC50 Vero Cells.
## Result 9.0 µg/mL

## Task Consider the compound C[n+]1cccc(N(CCCCCC2CCCCC2)c2ccccc2)c1 [JRE-4-1-1] and give its measured TC50 Vero Cells.
## Result 8.3 µg/mL

## Task Consider the compound Clc1ccc(Nc2cc3ccccc3[n+](CCCCCc3ccccc3)c2)cc1 [JRE-2-89-1] and give its measured TC50 Vero Cells.
## Result >25 µg/mL

====

Ca MIC listing for selected compounds.
system: Candida albicans ATTC 90028; assay: Antifungal susceptibility testing, Candida albicans; format: cell-based; settings: Table 3

Worked cases, Ca MIC given:
| compound | observed-value |
| --- | --- |
| C[n+]1cc2c(c3ccc(Cl)cc3n2CCCCCC2CCCCC2)c2ccccc21.[I-] [JRE-3-84-1] | 1.3 µg/mL |
| C[C@@H]1[C@H](O)[C@@H](C)/C=C/C=C/C=C/C=C/C=C/C=C/C=C/[C@H](O[C@@H]2O[C@H](C)[C@@H](O)[C@H](N)[C@@H]2O)C[C@@H]2O[C@](O)(C[C@@H](O)C[C@@H](O)[C@H](O)CC[C@@H](O)C[C@@H](O)CC(=O)O[C@H]1C)C[C@H](O)[C@H]2C(=O)O [Amph B, Amphotericin B, reference compound] | 0.63 µg/mL |
| C[n+]1cc2c(c3ccccc3n2CCCCCC2CCCCC2)c2ccccc21.[I-] [JRE-3-100-1] | 2.5 µg/mL |

## Task Consider the compound C[n+]1cc2c(c3ccc(C(F)(F)F)cc3n2CCCCCC2CCCCC2)c2ccccc21.[I-] [JRE-5-31-1] and give its measured Ca MIC.
## Result 1.3 µg/mL

## Task Consider the compound FC(F)(F)c1ccc2[nH]c3c[n+](CCCCCC4CCCCC4)c4ccccc4c3c2c1.[I-] [JRE-3-4-1] and give its measured Ca MIC.
## Result 6.3 µg/mL
